# ASSAY NOTES: Plasma protein binding (PPB, mouse)
# Assay type: in vitro ADME
# MEASUREMENT SETUP: mouse, plasma; read-out: PPB mouse (% bound) (converted)
MEASURED ATTRIBUTE: fraction unbound

INSERT INTO results (compound, observed_measurement) VALUES
  ('CCOC(=O)C1C(=O)c2ccc(C(=O)c3ccc4c(c3)C(=O)C(C(=O)OCC)C4=O)cc2C1=O (stereo not shown) [Example 3]', 0.043);

====

# TEST SYSTEM: human PF4 (Homo sapiens, UniProt P02776)
# Construct: PF4 is a 70 amino acid, lysine-rich 7.8 kDa platelet-specific protein; made in house; host or cells: Escherichia coli BL21DE3 pLysS (pT7-7) and/or Drosophila S2 cells
# Sequence (P02776 32-101): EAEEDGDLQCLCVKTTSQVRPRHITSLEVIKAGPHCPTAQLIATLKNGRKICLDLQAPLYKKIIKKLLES
# ASSAY NOTES: Inhibition of PF4 tetramer formation (BS3 cross-linking, SDS-PAGE)
# Assay type: biochemical
# MEASUREMENT SETUP: read-out: IC50 of PF4 tetramer formation inhibition
Measured IC50 values are reported for all entries that follow.
MEASURED ATTRIBUTE: IC50 (µM)

INSERT INTO results (compound, observed_measurement) VALUES
  ('O=C(CC1CCCC1)C1C(=O)c2ccc(S(=O)(=O)c3ccc4c(c3)C(=O)C(C(=O)CC3CCCC3)C4=O)cc2C1=O (stereo not drawn)', 18),
  ('CSCCC(=O)C1C(=O)c2ccc(S(=O)(=O)c3ccc4c(c3)C(=O)C(C(=O)CCSC)C4=O)cc2C1=O (stereo not drawn)', 3),
  ('O=C(c1ccc2c(c1)C(=O)C(C(=O)NC1CCC1)C2=O)c1ccc2c(c1)C(=O)C(C(=O)NC1CCC1)C2=O (stereo not drawn)', 1.54),
  ('COC(=O)N1CCC[C@H]1C(=O)C1C(=O)c2ccc(C(=O)c3ccc4c(c3)C(=O)C(C(=O)[C@@H]3CCCN3C(=O)OC)C4=O)cc2C1=O (stereo partly drawn)', 2.5),
  ('O=C(NC1CCCC1)C1C(=O)c2ccc(Oc3ccc4c(c3)C(=O)C(C(=O)NC3CCCC3)C4=O)cc2C1=O (stereo not drawn)', 2.9);
